Molecular target: recombinant human cGAS (aa147-522) (Homo sapiens)
Construct: recombinant human cGAS (aa147-522); His6-SUMO (N, cleaved yes)
Sequence (Q8N884 147-522): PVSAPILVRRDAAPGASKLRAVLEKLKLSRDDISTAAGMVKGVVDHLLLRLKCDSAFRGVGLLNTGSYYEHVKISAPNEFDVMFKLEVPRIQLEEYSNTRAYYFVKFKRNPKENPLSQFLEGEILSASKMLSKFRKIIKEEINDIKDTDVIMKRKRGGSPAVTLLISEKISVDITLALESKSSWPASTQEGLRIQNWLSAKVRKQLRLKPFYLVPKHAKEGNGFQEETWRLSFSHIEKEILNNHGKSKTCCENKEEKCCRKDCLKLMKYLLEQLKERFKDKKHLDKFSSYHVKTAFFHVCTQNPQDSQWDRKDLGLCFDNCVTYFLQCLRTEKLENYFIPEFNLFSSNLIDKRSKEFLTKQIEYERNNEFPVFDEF
Experiment: In vitro inhibition assay of cGAS activity (KinaseGlo, ATP consumption)
Conditions: Herring testis DNA, 6.6 μM ATP, 0.1 mM GTP, 37° C. 20 minutes
experimental_endpoint: IC50

chemical_smiles: O=C(O)CCOC[C@@H]1CCCN1c1cc(N2CCOCC2)c2ccc(Cl)c(Cl)c2n1
target: recombinant human cGAS (aa147-522) (Homo sapiens)
reported: > 30000 nM

chemical_smiles: O=C(O)CCOC[C@@H]1CCCN1c1cc(-c2cnco2)c2ccc(Br)cc2n1
target: recombinant human cGAS (aa147-522) (Homo sapiens)
reported: < 2000 nM

chemical_smiles: O=C(O)CCOC[C@@H]1CCCN1c1cc(-c2ccc(F)cc2)c2ccc(Cl)c(Cl)c2n1
target: recombinant human cGAS (aa147-522) (Homo sapiens)
reported: > 30000 nM

Problem: Respond only with IC50 recorded for O=C(O)CCOC[C@@H]1CCCN1c1cc(-n2cncn2)c2cc(Cl)c(Cl)cc2n1
Result: < 2000 nM

Problem: Please give the documented IC50 of O=C(O)CCOC[C@@H]1CCN(c2cc(-n3cncn3)c3cc(Cl)c(Br)cc3n2)C1
Result: < 2000 nM

Problem: Quote IC50 reported for CCN(CCOCCC(=O)O)c1cc(-n2cncn2)c2cc(Br)c(Cl)c(Cl)c2n1 please.
Result: < 2000 nM

Problem: Respond only with IC50 recorded for O=C(O)CCOC[C@@H]1CC2(CC2)CN1c1cc(-n2cncn2)c2ccc(Cl)c(Cl)c2n1
Result: < 2000 nM

Problem: Specify measured IC50 for O=C(O)CCOC[C@@H]1CCCN1c1cc(N2CCNCC2)c2ccc(Cl)c(Cl)c2n1 .
Result: > 30000 nM

# credit: patent US12091387B2
